# Test: Pharmacokinetics of S3643, single iv or oral dose
# Format: in vivo, Sprague-Dawley rats
# Condition notes: female, Sprague-Dawley, rat, plasma, po, 100 mg/kg
Readout label: Tmax (min)
Give your result in min as a bare value.

Prompt: Given `COc1cccc(-c2n[nH]c(SCc3ccccn3)n2)c1OC` , state its recorded Tmax.
Completion: 22.8

----------
# Test: Pharmacokinetics of S3643, single iv or oral dose
# Type: in vivo, Sprague-Dawley rats
# Condition notes: female, Sprague-Dawley, rat, plasma, po, 100 mg/kg
Readout label: bioavailability (%)
Give your result in % as a bare value.

Prompt: Given COc1cccc(-c2n[nH]c(SCc3ccccn3)n2)c1OC [S3643] , state its recorded bioavailability.
Completion: 113

----------
# Test: Pharmacokinetics of S3643, single iv or oral dose
# Format: in vivo, Sprague-Dawley rats
# Condition notes: female, Sprague-Dawley, rat, plasma, po, 10 mg/kg
Readout label: half-life (min)
Give your result in min as a bare value.

Prompt: Given `COc1cccc(-c2n[nH]c(SCc3ccccn3)n2)c1OC` , state its recorded half-life.
Completion: 53.4

----------
# Test: Pharmacokinetics of S3643, single iv or oral dose
# Format: in vivo, Sprague-Dawley rats
# Condition notes: female, Sprague-Dawley, rat, plasma, po, 30 mg/kg
Readout label: Tmax
State the result as a value with its unit after it.

Prompt: Given `COc1cccc(-c2n[nH]c(SCc3ccccn3)n2)c1OC` , state its recorded Tmax.
Completion: 15 min
